Recorded values, source PubChem BioAssay AID588651.

Tested on: Fam108b
Test: Fam108b inhibitors and proteome off-target selectivity – biochemical, gel-based ABPP, recombinant soluble Fam108b, HTS hits, complex proteome, late-stage follow-up (AID 588651);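 further: Fam108b spiked into mouse brain membrane proteome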
Particulars: FP-rhodamine labeling in proteome, at 20 µM, hits give high values
Classification field: enter rule met for inhibition values not below 30%, rule not met for values below it.

Solved entries:
> print(dat)
                                   compound   label.class
1  O=S(=O)(c1cc(O)ccc1O)c1cccc2c(S(=O)(=O)c3cc(O)ccc3O)cccc12  rule not met
2  O=C(NC1CCCCC1)c1sc(=S)n2c1[nH]c(=O)c1ccccc12  rule not met
3      O=C(Nc1ccc2[nH]c(=S)sc2c1)Nc1ccccc1F  rule not met
4          COc1ccc(NC(=S)Nc2ccc3nsnc3c2)cc1  rule not met

Decide: inhibition of O=C(NCC1CC1)c1ccc(Nc2nc3ccc(Br)cc3[nH]2)cc1 >= 30%?
rule not met

Then this compound: Cc1[nH]c2c(C)cccc2c1CCNC(=O)c1ccc2c(c1[N+](=O)[O-])C(=O)c1ccccc1C2=O
rule met

Then what about the compound Cc1ccc2nc(CSc3nc(C)ccc3C#N)[nH]c2c1 ?
rule met

Okay, and Cc1c(O)ccc(C=NNc2nc(-c3cccnc3)nc3ccccc23)c1O ?
rule met

Next up: O=C(O)C1Nc2ccc(Br)cc2C2C=CCC12 (stereo not drawn)
rule not met

Request: O=C1c2ccccc2-c2onc3ccc(NCCCn4ccnc4)c1c23
rule not met

Another compound to check: COc1ccc2ccccc2c1C(O)c1nccn1C (stereo not drawn)
rule not met

Continue with Clc1ccccc1C(c1ccccc1)(c1ccccc1)n1ccnc1
rule not met

Same again, this time with CCc1cc(C(Cc2ccc3ccccc3n2)=NO)c(O)cc1O
rule not met

* * *

Test system: Fam108b
Test: Fam108b inhibitors and proteome off-target selectivity – biochemical, gel-based ABPP, recombinant soluble Fam108b, HTS hits, complex proteome, late-stage follow-up (AID 588651);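 further: Fam108b spiked into mouse brain membrane proteome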
Particulars: FP-rhodamine labeling in proteome, at 20 µM
Calls of active or inactive are those of the source. Rule as the data show it: active = inhibition above about 65%; inactive = the rest.
Answer with one of the outcomes active, inactive

Here are 3 molecules together with their reported answers.
> print(dat)
                                 cpd.smiles  system.name  label.class
1  COc1cc(-c2nc(-c3ccc4c(c3)-c3ccccc3S4(=O)=O)c(-c3ccccc3)[nH]2)cc(OC)c1O      Fam108b     inactive
2  Oc1nc(Nc2cccc(Cl)c2)sc1/C=C1\C=Nc2ccccc21      Fam108b       active
3  CCc1ccc(S(=O)(=O)N=C2C=C(Sc3ncn[nH]3)C(=O)c3ccccc32)cc1      Fam108b     inactive

Could you kindly confirm the outcome this assay logged for CSC[C@@H]1NC(=S)N(c2ccc(C)cc2)C1=O ?
inactive

Check COc1ccc(/C=C2\SC(=S)N(CC(=O)OCC(=O)Nc3cc(Cl)cc(Cl)c3)C2=O)cc1 too.
inactive

Now this one: Cc1ccc(C)c(-n2c3nc(=O)[nH]c(=O)c-3cc3cc([N+](=O)[O-])ccc32)c1
inactive

Would you kindly repeat that for CN(C)S(=O)(=O)c1cccc(NC(=O)COC(=O)c2cc(-c3cccc(Br)c3)nc3ccccc23)c1 ?
inactive

Same question for CCNc1ccc2noc3c2c1C(=O)c1ccccc1-3 please.
inactive

Entry to check: O=C(Nc1ccc(-c2csc(Nc3cccc(C(F)(F)F)c3)n2)cc1)c1cccc(C(F)(F)F)c1
active

Now the same for Cc1nc2scc(-c3ccccc3)c2c(=O)o1
active

* * *

System: Fam108b
Test: Fam108b inhibitors and proteome off-target selectivity – biochemical, gel-based ABPP, recombinant soluble Fam108b, HTS hits, complex proteome, late-stage follow-up (AID 588651);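 further: Fam108b spiked into mouse brain membrane proteome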
Particulars: FP-rhodamine labeling in proteome, at 20 µM
The source made the active and inactive calls. Cut-off read from the data, not from the text of the source: active = inhibition above about 65%; inactive = the rest.
Hi! Could you answer with just one of these? 1 (yes) for active, 0 (no) for inactive

Example entries begin here.
> print(dat)
                                   compound  label.class
1  COc1cccc(C=NNc2nc(Nc3ccc([N+](=O)[O-])cc3)nc(N3CCCC3)n2)c1O      1 (yes)
2  COc1ccc(S(=O)(=O)/N=C2\C=C(Nc3ccc(O)cc3)C(=O)c3ccccc32)cc1       0 (no)
3    Nc1cc(C(=O)O)c(N)c2c1C(=O)c1ccccc1C2=O       0 (no)
4              CC1=CC(=O)c2c(O)ccc(O)c2C1=O       0 (no)
5  O=C(NN=Cc1ccc(O)cc1)c1cccc(NN=Cc2ccc(O)cc2)c1       0 (no)

So what was the verdict on COc1ccc(-c2csc3nc(-c4ccccc4F)oc(=O)c23)cc1 in this test?
1 (yes)

Record: N=c1oc2cc(O)ccc2cc1C(=O)Nc1ccc(Br)cc1
0 (no)

Similarly, Cn1c(O)c(C=NNC(=O)c2cc3ccccc3cc2O)c2ccccc21 ?
0 (no)

Also check Brc1csc(C=NNc2nc3ccccc3s2)c1
0 (no)

* * *

System: Fam108b
Test: Fam108b inhibitors and proteome off-target selectivity – biochemical, gel-based ABPP, recombinant soluble Fam108b, HTS hits, complex proteome, late-stage follow-up (AID 588651);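 further: Fam108b spiked into mouse brain membrane proteome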
Particulars: FP-rhodamine labeling in proteome, at 20 µM, hits give high values
Each entry gets 0.0 if its inhibition stays under 7%, and 1.0 if its inhibition is 7% or above.

> print(dat)
                                 cpd.smiles  label.class
1  Nc1ccc2nc(-c3cccc(-c4nc5ccc(N)cc5[nH]4)c3)[nH]c2c1          1.0

Note: attention shifts to another entry.
Please tell me: is the compound COc1cccc(C=NNC(=O)c2[nH]c(C)c(C(=O)NN=Cc3cccc(OC)c3O)c2C)c1O at or over 7% in terms of inhibition?
1.0

* * *

// reported inhibition for each item listed
Tested on: Fam108b
Test: Fam108b inhibitors and proteome off-target selectivity – biochemical, gel-based ABPP, recombinant soluble Fam108b, HTS hits, complex proteome, late-stage follow-up (AID 588651);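 further: Fam108b spiked into mouse brain membrane proteome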
Particulars: FP-rhodamine labeling in proteome, at 20 µM, hits give high values
Reply with just the number (in %).

Answered cases to consult:
> print(dat)
                                   compound  system.name  units.symbol  val
1            Oc1ccccc1C1Nc2cccc3cccc(c23)N1      Fam108b             %    0
2         Cc1nc2scc(-c3ccc(Cl)cc3)c2c(=O)o1      Fam108b             %   95
3  CCn1nc([N+](=O)[O-])c(C(C#N)c2nc3cc(C(F)(F)F)ccc3s2)c(Cl)c1=O (stereo not drawn)      Fam108b             %    0
4  O=C(O)CCCNc1cc(N2CCN(C(=O)c3ccco3)CC2)c2noc3c2c1C(=O)c1ccccc1-3      Fam108b             %   40
5  O=C(Nc1ccc(N2CCCC2)c(S(=O)(=O)Nc2cccc(C(F)(F)F)c2)c1)c1cccs1      Fam108b             %   85

Form: Entry = COc1cc2c(cc1NC(=S)Nc1cccc(C(F)(F)F)c1)oc1ccccc12 | System = Fam108b | inhibition = ____
20

Same read-out for O=C(Nc1ccc(-c2csc(Nc3ccccc3)n2)cc1)c1cc([N+](=O)[O-])cc(C(F)(F)F)c1 ?
60

Next up: Cc1cc(C)nc(SCc2ccc(C(=O)NN=Cc3cccc(O)c3O)cc2)n1
30

* * *

Test system: Fam108b
Test: Fam108b inhibitors and proteome off-target selectivity – biochemical, gel-based ABPP, recombinant soluble Fam108b, HTS hits, complex proteome, late-stage follow-up (AID 588651);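 further: Fam108b spiked into mouse brain membrane proteome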
Particulars: FP-rhodamine labeling in proteome, at 20 µM, hits give high values
So basically: inhibition at 7% or higher? That is MET. Lower than 7%? That is NOT MET.

Please check the record Oc1ccc(C2Nc3cccc4cccc(c34)N2)c(O)c1 and state if its inhibition is at or above 7%.
NOT MET

Also CN(c1ccccc1)S(=O)(=O)c1ccc(NC(=O)c2ccc(-c3ccccc3)cc2)cc1 , if possible.
MET

Try this compound too: COc1cc2cc(C(=O)NN=Cc3ccccc3Cl)[nH]c2cc1OC
MET

Next compound: Oc1ccc(C=NNc2ccnc3cc(Cl)ccc23)cc1O
MET

And Cc1cc(NN=Cc2c(O)ccc3ccccc23)nc(-c2ccccc2O)n1 ?
MET

Entry Oc1ccccc1-c1nc2c3ccccc3c3ccccc3c2[nH]1 please
NOT MET

Another compound to look at: COc1cc2c(cc1NC(=O)Nc1ccccc1)oc1ccccc12
NOT MET

* * *

Tested on: Fam108b
Test: Fam108b inhibitors and proteome off-target selectivity – biochemical, gel-based ABPP, recombinant soluble Fam108b, HTS hits, complex proteome, late-stage follow-up (AID 588651);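 further: Fam108b spiked into mouse brain membrane proteome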
Particulars: FP-rhodamine labeling in proteome, at 20 µM
Calls of active or inactive are those of the source. Rule as the data show it: active = inhibition above about 65%; inactive = the rest.
Classes to choose from: 1 (yes) = active, 0 (no) = inactive

Here's what some known entries look like.
> print(dat)
                                   compound  label.class
1         CCCCCCCCCCCCCCCC[n+]1ccc(C=NO)cc1       0 (no)
2  Cc1cc(C(C#N)c2ccc(Cl)cc2)c(Cl)cc1NC(=O)c1cc(I)cc(I)c1O (stereo not given)       0 (no)

Please let me know the test result on file for COc1ccc2oc(=O)c(-c3csc(Nc4cccc(O)c4)n3)cc2c1 .
0 (no)

Note, next up: Nc1c(S(=O)(=O)c2cccc(Cl)c2)c2nc3ccccc3nc2n1N=Cc1ccc(O)c(O)c1
1 (yes)

Next: CCOC(=O)c1sc(NC(=O)Nc2ccc(Cl)cc2)cc1C
0 (no)
